# Test system: BDF1 mice, s.c. Lewis lung carcinoma, T/C %
# method.summary: NCI In Vivo Anticancer Drug Screen. Data for tumor model Lewis Lung Carcinoma (subcutaneous) in B6D2F1 (BDF1) mice
# reported.conditions: endpoint: mean tumor weight; dose: 10.0 mg/kg/injection; schedule: Q01DX011 (ip); vehicle: saline; higher = larger tumour
# Procedure: The antitumor activity of compounds was measured in mice bearing transplantable tumors. Survival or tumor size were measured and the results are expressed as the measurement made in the treated group (T) divided by the measurement made in the vehicle treated control group (C). The tumor model used in this assay is Lewis Lung Carcinoma (subcutaneous) in B6D2F1 (BDF1) mice
Results filed as inconclusive are left out.
Reported T/C values for a set of compounds

[
  {
    "compound": "CS(=O)(=O)OCCCNCCCOS(C)(=O)=O",
    "T/C": "63 % of control"
  },
  {
    "compound": "NC(Cc1ccc(N(CCCl)CCCl)cc1)C(=O)O (stereo not given)",
    "T/C": "3 % of control"
  },
  {
    "compound": "CN(N=O)C(N)=O",
    "T/C": "57 % of control"
  },
  {
    "compound": "CCCCOP(=S)(N1CC1)N1CC1",
    "T/C": "23 % of control"
  },
  {
    "compound": "O=c1[nH]c(=O)n(C2CC(O)C(CO)O2)cc1F (stereo not given)",
    "T/C": "82 % of control"
  }
]
